Measured phosphorylation enrichment, listed per entry.
Test system: AncSZ
protocol_text: phosphorylation enrichment, bacterial display (enrichment ratio); higher = better substrate or ligand; peptides without Tyr show the background
Field format: numeric only.

input_sequence: SDPIIYTLENI [ADGRE1_Y534]
phosphorylation enrichment: 0.963
//
input_sequence: LSSEMYVKSYT [F5_Y2149]
phosphorylation enrichment: 1.46
//
input_sequence: KTTSGYAGGLS [KRT8_Y419]
phosphorylation enrichment: 0.404
//
input_sequence: SCRENYSFSEE [LEMD3_Y258_D260Y_YF]
phosphorylation enrichment: 1.1
//
input_sequence: KMKGDYFCFLA [YWHAG_Y130_R132C_YF]
phosphorylation enrichment: 2.31
//
input_sequence: TKVTFYKQPMF [GBA_Y451_D448V]
phosphorylation enrichment: 0.981

Next, consider the following sequence.
Which phosphorylation enrichment is reported for this sequence? NREGVYTVSAP [TGFBI_Y537_F540S]
0.757

* * *

measured_target: SHP2-C SH2
protocol_text: SH2 binding enrichment of the phosphorylated peptide, bacterial display (enrichment ratio); higher = better substrate or ligand; peptides without Tyr show the background
Recorded SH2 binding enrichment determines the label; the label ranges are lower bin: < 0.7; middle bin: ≥ 0.7 and < 1; upper bin: ≥ 1

These solved cases illustrate the format of a correct answer.
input_sequence: RNIQQCNSFVS [PRKAR1A_Y373_Y373C]
assigned_category: middle bin

input_sequence: KTTSGYAGGLS [KRT8_Y419]
assigned_category: lower bin

input_sequence: GDPTEYYITAI [IGSF22_Y501_S503I]
assigned_category: lower bin

input_sequence: VMAALYGRLYE [BTD_Y536_T532M]
assigned_category: upper bin

input_sequence: NREGVYTVSAP [TGFBI_Y537_F540S]
assigned_category: middle bin

Which class holds MEFLPYGSLRD [JAK2_Y934_YF] ?
lower bin

Given QYNPEYVQQAS [LRRC7_Y1058_H1054Y] , name the class its SH2 binding enrichment places it in.
upper bin

Into which category would you place TTKAKYKTPIF [PLD2_Y573_T577I_YF] ?
upper bin

Input HLEKKYVHRDS [CSF1R_Y708_R710H] ; output its category
upper bin

* * *

System: c-Src
protocol_text: phosphorylation enrichment, bacterial display (enrichment ratio); higher = better substrate or ligand; peptides without Tyr show the background
phosphorylation enrichment vs 0.6: at or above is yes (1), below is no (0).

input_sequence: QNVADYMRFLM [RPL5_Y207_YF]
measured_target: c-Src
assigned_category: yes (1)

Determine whether this sequence has phosphorylation enrichment no lower than 0.6: DGTIVYTGLET [USH2A_Y4487]
yes (1)

* * *

measured_target: Hck (UniProt P08631)
Sequence (P08631 whole entry, looked up): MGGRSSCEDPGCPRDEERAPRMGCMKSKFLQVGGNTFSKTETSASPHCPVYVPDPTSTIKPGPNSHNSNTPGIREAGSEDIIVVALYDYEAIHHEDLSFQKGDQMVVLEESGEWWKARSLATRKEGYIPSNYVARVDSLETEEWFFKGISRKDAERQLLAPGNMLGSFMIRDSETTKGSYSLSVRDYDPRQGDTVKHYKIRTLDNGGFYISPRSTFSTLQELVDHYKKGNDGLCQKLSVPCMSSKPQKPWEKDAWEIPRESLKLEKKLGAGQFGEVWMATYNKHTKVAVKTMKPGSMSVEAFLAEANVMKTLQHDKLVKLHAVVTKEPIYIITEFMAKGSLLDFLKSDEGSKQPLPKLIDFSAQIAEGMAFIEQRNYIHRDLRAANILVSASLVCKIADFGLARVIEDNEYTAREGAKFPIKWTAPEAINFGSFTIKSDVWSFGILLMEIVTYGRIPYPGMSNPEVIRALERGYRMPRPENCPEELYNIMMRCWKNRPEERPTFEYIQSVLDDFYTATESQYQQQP
protocol_text: phosphorylation enrichment, bacterial display (enrichment ratio); higher = better substrate or ligand; peptides without Tyr show the background
The sequences listed here are annotated with their phosphorylation enrichment.
Provide a numeric answer; units are not to be included.

input_sequence: EARRVYGDIIF [ALDH5A1_Y175_H180Y_YF]
measured_target: Hck (UniProt P08631)
phosphorylation enrichment: 0.509

input_sequence: TPGPNYCPGFN [USH2A_Y463_R464C_YF]
measured_target: Hck (UniProt P08631)
phosphorylation enrichment: 0.333

input_sequence: KVALLYKPYFY [POLE_Y100_P99L]
measured_target: Hck (UniProt P08631)
phosphorylation enrichment: 0.514

input_sequence: SVTWTYSPALN [TP53_Y126_C124W]
measured_target: Hck (UniProt P08631)
phosphorylation enrichment: 0.467

input_sequence: EHLNRYINDTF [TTLL10_Y446_S448N]
measured_target: Hck (UniProt P08631)
phosphorylation enrichment: 0.49

input_sequence: LDMSQYFRLFN [CPT2_Y217]
measured_target: Hck (UniProt P08631)
phosphorylation enrichment: 0.885

input_sequence: QNVADYMRFLM [RPL5_Y207_YF]
measured_target: Hck (UniProt P08631)
phosphorylation enrichment: 1.09

input_sequence: ADEDIYGVLPA [LYNtide_2014]
measured_target: Hck (UniProt P08631)
phosphorylation enrichment: 3.51

Requested field: phosphorylation enrichment. Item: APSHAYHGGVL [ANO1_Y981]
0.5

Quick one: phosphorylation enrichment for LTTPTYGDLNH [TUBB_Y222] ?
4.7

Request the reported phosphorylation enrichment associated with TPRNTYKMTSL [MKI67_Y849]
0.395

Quick one: phosphorylation enrichment of FRVDCYKNFVA [FHL1_Y213_C209R_YF] ?
0.511

Fill in: phosphorylation enrichment of FGVTLYPNSGE [MEP1A_Y472_R476G] is ___
0.574

GET /values?readout=phosphorylation enrichment&item= NDFGNYNQQPS [HNRNPA2B1_Y306]
0.504

* * *

measured_target: EPHB2 (UniProt P29323)
Sequence (P29323 whole entry, looked up): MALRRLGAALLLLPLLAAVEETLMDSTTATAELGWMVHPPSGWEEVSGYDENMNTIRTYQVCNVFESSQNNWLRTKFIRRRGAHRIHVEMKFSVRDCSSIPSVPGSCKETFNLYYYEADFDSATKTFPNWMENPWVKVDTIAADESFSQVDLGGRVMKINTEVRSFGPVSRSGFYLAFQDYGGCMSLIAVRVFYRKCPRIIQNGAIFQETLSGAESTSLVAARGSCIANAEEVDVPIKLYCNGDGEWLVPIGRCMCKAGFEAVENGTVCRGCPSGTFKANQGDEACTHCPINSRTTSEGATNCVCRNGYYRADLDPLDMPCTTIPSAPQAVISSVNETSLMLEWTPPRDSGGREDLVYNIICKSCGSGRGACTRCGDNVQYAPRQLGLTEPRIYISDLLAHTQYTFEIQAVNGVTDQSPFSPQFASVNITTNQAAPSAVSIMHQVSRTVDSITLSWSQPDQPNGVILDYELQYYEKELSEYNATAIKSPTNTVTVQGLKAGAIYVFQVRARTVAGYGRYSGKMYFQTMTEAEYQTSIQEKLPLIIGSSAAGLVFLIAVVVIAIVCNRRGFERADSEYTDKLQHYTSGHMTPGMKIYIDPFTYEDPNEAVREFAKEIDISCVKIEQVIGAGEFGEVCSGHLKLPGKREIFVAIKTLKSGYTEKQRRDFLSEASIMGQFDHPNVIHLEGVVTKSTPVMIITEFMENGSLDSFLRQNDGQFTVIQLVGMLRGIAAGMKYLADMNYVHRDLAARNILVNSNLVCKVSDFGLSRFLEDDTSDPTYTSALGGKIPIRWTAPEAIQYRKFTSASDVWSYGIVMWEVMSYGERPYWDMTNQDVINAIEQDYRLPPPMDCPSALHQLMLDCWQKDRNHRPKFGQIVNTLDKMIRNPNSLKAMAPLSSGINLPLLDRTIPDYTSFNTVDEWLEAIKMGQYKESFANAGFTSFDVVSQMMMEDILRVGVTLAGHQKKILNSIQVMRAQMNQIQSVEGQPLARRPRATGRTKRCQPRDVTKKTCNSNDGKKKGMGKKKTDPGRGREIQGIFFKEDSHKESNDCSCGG
protocol_text: phosphorylation enrichment, bacterial display (enrichment ratio); higher = better substrate or ligand; peptides without Tyr show the background
Is phosphorylation enrichment at least 0.5? Then Satisfied. If not, Not satisfied.

Quick check, phosphorylation enrichment >= 0.5? GDSVQYNRTTD [MLPH_Y454_P451S]
Not satisfied

Does the reported phosphorylation enrichment for ADFPDYKFRPR [SOX11_Y116_YF] fall at or above the 0.5 mark?
Not satisfied

Check the entry KTTSGYAGGLS [KRT8_Y419] : does phosphorylation enrichment equal or exceed 0.5?
Not satisfied

* * *

measured_target: FGFR3 (UniProt P22607)
Sequence (P22607 whole entry, looked up): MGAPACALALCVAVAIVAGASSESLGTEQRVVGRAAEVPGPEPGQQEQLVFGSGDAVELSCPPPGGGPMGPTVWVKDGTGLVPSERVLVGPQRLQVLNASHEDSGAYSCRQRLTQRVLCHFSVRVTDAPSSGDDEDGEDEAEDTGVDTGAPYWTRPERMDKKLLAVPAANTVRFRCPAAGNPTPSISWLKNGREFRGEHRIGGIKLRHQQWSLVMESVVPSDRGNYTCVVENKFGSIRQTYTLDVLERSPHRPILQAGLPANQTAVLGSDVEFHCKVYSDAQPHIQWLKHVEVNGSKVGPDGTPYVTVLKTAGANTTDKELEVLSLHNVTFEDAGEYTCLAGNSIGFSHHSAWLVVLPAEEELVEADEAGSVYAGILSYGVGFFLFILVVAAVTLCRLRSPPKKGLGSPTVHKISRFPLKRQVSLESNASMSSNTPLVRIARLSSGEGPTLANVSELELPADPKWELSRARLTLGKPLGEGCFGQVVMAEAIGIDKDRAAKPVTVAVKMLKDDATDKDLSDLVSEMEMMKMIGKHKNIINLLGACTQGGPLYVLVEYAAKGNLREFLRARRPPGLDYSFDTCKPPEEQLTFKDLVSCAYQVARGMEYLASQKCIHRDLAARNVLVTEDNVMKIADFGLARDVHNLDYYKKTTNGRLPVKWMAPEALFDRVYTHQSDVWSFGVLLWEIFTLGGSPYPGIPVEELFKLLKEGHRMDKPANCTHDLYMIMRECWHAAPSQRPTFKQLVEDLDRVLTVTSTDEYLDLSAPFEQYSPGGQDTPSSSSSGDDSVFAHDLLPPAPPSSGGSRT
protocol_text: phosphorylation enrichment, bacterial display (enrichment ratio); higher = better substrate or ligand; peptides without Tyr show the background
measurement_name: phosphorylation enrichment
Please state the value as a number alone, without comment.

Reference set (5 entries):
input_sequence: RAHARYCADAR [ACOT4_Y52]
phosphorylation enrichment: 0.633
--
input_sequence: SIKDKYVTVLF [KCNH2_Y611_A614V_YF]
phosphorylation enrichment: 0.646
--
input_sequence: SKNSKCNAEST [PSEN1_Y315_Y315C]
phosphorylation enrichment: 0.486
--
input_sequence: QTLTDYDTRFY [CSNK2A3_Y131_I133T]
phosphorylation enrichment: 0.69
--
input_sequence: ISKKIYDPIHD [CTNNA3_Y614_T616P]
phosphorylation enrichment: 0.529

Please report the recorded phosphorylation enrichment for LITLVYGCSRQ [TMPRSS6_Y290_S288L] .
0.863

Entry ACCLLYHGDVV [TUBA4A_Y319_R320H] : reported phosphorylation enrichment = ?
1.45

* * *

measured_target: SHP2-C SH2;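 also: peptide library displayed on the E. coli surface as eCPX fusions, selected cells deep-sequenced, score is each peptide's frequency after selection divided by its frequency in the input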
protocol_text: SH2 binding enrichment of the phosphorylated peptide, bacterial display (enrichment ratio); higher = better substrate or ligand; peptides without Tyr show the background
Here, each record is paired with measured SH2 binding enrichment data.
// no unit string in output, number only

Check out these entries, answers already filled in.
input_sequence: KMKGDYYRSLA [YWHAG_Y130_Y133S]
SH2 binding enrichment: 0.87
--
input_sequence: TSIGNYFKPWF [DHCR24_Y299_N294T_YF]
SH2 binding enrichment: 8.03
--
input_sequence: HHIDFYKKTTN [FGFR1_Y654_YF]
SH2 binding enrichment: 0.61
--
input_sequence: SYCYRYRCAAQ [SUMF1_Y344_R349Q]
SH2 binding enrichment: 1.43
--
input_sequence: PLKYLYPNIDK [STAT1_Y668]
SH2 binding enrichment: 0.735

Using the record for RRESPYGGGGG [FUS_Y526_R524S] , report its SH2 binding enrichment.
0.362

Name the recorded SH2 binding enrichment for VVKLAYNENDN [CAMKK2_Y183] .
0.622

Could you tell me which SH2 binding enrichment is on file for SIKDKYVTAVY [KCNH2_Y611_L615V] ?
0.664

Entry EAIAKYDFKAT [GRB2_Y7] has what SH2 binding enrichment?
0.679

Report SH2 binding enrichment for KVGPGYLGSGG [RET_Y826] please.
0.583

// query SH2 binding enrichment value for entry GADDSYYTARS [ZAP70_Y492]
0.447

What does the data say about its SH2 binding enrichment? Entry: GCRSKYVGLWR [KCNQ1_Y184_G189R]
0.744

Name the recorded SH2 binding enrichment for QRIFQYIRSRF [DYRK1B_Y273_Q275R_YF] .
0.467

Need SH2 binding enrichment of EQKKYYNAMKK [SCN5A_Y1495] , thanks.
1.07

Suppose we examine the sequence SAEKAYHEQLS [TUBA1A_Y282] ; what SH2 binding enrichment value has been reported?
0.785

Report SH2 binding enrichment for ISKKRYAGLLF [POLD1_Y809] please.
0.653

// query SH2 binding enrichment value for entry HQNGMYRLHQD [SGSH_Y89_G90R]
0.776

Look at this sequence and give its reported SH2 binding enrichment. NSAFFYKTAEE [CCT6B_Y250_G247A]
0.923

Any idea what SH2 binding enrichment was measured for `ACDALYPPGPP` ?
1.11

Fill in the blank: the reported SH2 binding enrichment of RHPFFYAPELL [ALB_Y174_YF] is ____.
1.14

Entry VTRKEYFIFLE [CAMKV_Y95] : reported SH2 binding enrichment = ?
1.43

For the sequence CSTIHYNYMCN [TP53_Y234_T230S] , what SH2 binding enrichment is on record?
3.83

Fill in: SH2 binding enrichment of FVSIVYNDSGE [TSC2_Y1650] is ___
1.01

Give its SH2 binding enrichment value. Item: IRTDAYVPAMT [RPE65_Y89_R91P]
0.62

Entry ATVRPYRPFII [LRP5_Y1528_A1525V_YF] has what SH2 binding enrichment?
0.79

All figures here come from the supplement of paper PMC10065799.
